- Tested on: CP269
- PROCEDURE_SUMMARY: qHTS profiling for inhibitors of Plasmodium falciparum proliferation (AID 504749); also: nearly all actives have a fitted effect of over 60% in size
- CONDITION_NOTES: P. falciparum in erythrocytes, SYBR Green DNA, 72 h; series mostly up to 28.7 µM
Results filed as inconclusive are left out. Activity calls are given as the source filed them. Calls follow the shape of the dose curve; as a rule, active = well fitted inhibition curve with a large enough effect; inconclusive = small, poorly fitted or top-dose-only effect; inactive = flat fitted curve, though single readings scatter.
Returns: one label drawn from active, inactive

Check out these entries, answers already filled in.
{"columns": ["COMPOUND", "CATEGORY_LABEL"],
 "data": [
  ["O=C(NCCNCC(O)COc1ccc(O)cc1)N1CCOCC1 (stereo unspecified)", "inactive"],
  ["Cc1cc2nc3c(=O)[nH]c(=O)nc-3n(C[C@H](O)[C@H](O)[C@H](O)COP(=O)(O)OP(=O)(O)OC[C@H]3O[C@@H](n4cnc5c(N)ncnc54)[C@H](O)[C@@H]3O)c2cc1C", "inactive"]
]}

Can you look up the reported call for CSCCC(N)C(=O)O (stereo unspecified) for me? inactive

Dear all, I need the recorded test outcome for "NCCN" , thank you. inactive

GET /call?item= CN1C(C(=O)Nc2ccccn2)C(=O)c2sc(Cl)cc2S1(=O)=O (stereo unspecified) returns the recorded outcome of this test. inactive

Given CC(=O)N[C@@H]1C(O[C@H]2O[C@H](C(=O)O)C(O)[C@H](O)[C@H]2O)[C@H](O)[C@@H](CO)O[C@H]1O[C@@H]1C(C(=O)O)O[C@@H](O[C@H]2[C@H](O)[C@@H](CO)OC(O)[C@@H]2NC(C)=O)[C@H](O)[C@H]1O (stereo partly specified) , state the outcome it received in this test. inactive

Returns: the outcome recorded for "CCCCCc1ccc(C)cc1O" in this assay. inactive

I would be grateful if you could indicate the recorded call for "CN1C(=O)C[C@@H](C(=O)N[C@@H](Cc2cnc[nH]2)C(=O)N2CCC[C@H]2C(N)=O)NC1=O" . inactive

Test call for this compound, please: "OC/C=C/c1ccccc1" inactive

Would you mind telling me which call this test gave c1ccc2c(c1)OCC(CN1CCCCC1)O2 (stereo unspecified) ? inactive

Please indicate how the test categorized "CO/N=C(\C(=O)N[C@@H]1C(=O)N2C(C(=O)[O-])=C(C[n+]3cccc4c3CCC4)CS[C@H]12)c1csc(N)n1" . inactive

Recorded test call requested for CCC(C(=O)NC(N)=O)c1ccccc1 (stereo unspecified) inactive

For "CO" , what call appears in the results of this test? inactive

Field: outcome | Entry: "Cn1c(O)c(N=NC(N)=S)c2ccccc21" inactive

Per the records of this test, what outcome belongs to "COc1ccc2c(=O)c(C)c(-c3ccccc3)oc2c1CN(C)C" ? inactive

Answer briefly: the call reported for "CC[C@H]1OC(=O)[C@H](C)[C@@H](O[C@H]2C[C@@](C)(OC)[C@@H](O)[C@H](C)O2)[C@H](C)[C@@H](O[C@@H]2O[C@H](C)C[C@H](N(C)C)[C@H]2O)[C@](C)(O)C[C@@H](C)CN(C)[C@H](C)[C@@H](O)[C@]1(C)O" in this assay. active
